# Test system: P. falciparum 3D7 parasites
# Protocol Notes: Metabolomic profiling of compound-treated parasites (LC/MS)
# Type: cell-based
Assay Readout: Metabolite data: NADP+
One number for each entry.

- Molecule: "CC1(C)N=C(N)N=C(N)N1OCCCOc1cc(Cl)c(Cl)cc1Cl"
  Measured Value: 0.03
- Molecule: "C[C@H]1Cc2c([nH]c3cc(Cl)c(F)cc23)[C@@]2(N1)C(=O)Nc1ccc(Cl)cc12"
  Measured Value: -0.12
- Molecule: "O=C1C(O)=C([C@H]2CC[C@H](c3ccc(Cl)cc3)CC2)C(=O)c2ccccc21 [Atovaquone, reference compound]"
  Measured Value: -0.1
- Molecule: "CCc1nc(N)nc(N)c1-c1ccc(Cl)cc1"
  Measured Value: 0.03009
- Molecule: "N#Cc1cc(NC(=O)[C@H]2c3ccccc3C(=O)N(CC(F)(F)F)[C@@H]2c2cccnc2)ccc1F"
  Measured Value: -0.1788
- Molecule: "CCN(CC)S(=O)(=O)c1ccc(Cl)c(C(=O)Nc2ccc3nc(C)sc3c2)c1"
  Measured Value: -0.07183

Please give Metabolite data: NADP+ for each item listed below.
1. O=C(NNC(=O)c1csnn1)c1ccc(Cl)cc1
2. COc1cc2[nH]c(C)c(-c3ccc(Oc4ccc(OC(F)(F)F)cc4)cc3)c(=O)c2cc1Cl
3. Cc1cc(Nc2ccc3ccccc3c2)n2ncnc2n1

Response:
-0.01332
-0.1602
-0.1908

###

# Test system: P. falciparum MMV019721-resistant lines (3D7-A10 or Dd2-B2 derived)
# Protocol Notes: Dose-response assay of MMV019721-selected resistant lines (bulk cultures and clones)
# Type: cell-based
# Condition: Plasmodium falciparum, read-out: MMV019721 mean EC50 (nM) ± SD (n), selection 12, 3D7-A10, clone 2D11, sequencing not determined
Assay Readout: EC50 (nM)
Give bare numbers, in nM.

Prompt: Given the entry CCN(CC)S(=O)(=O)c1ccc(Cl)c(C(=O)Nc2ccc3nc(C)sc3c2)c1 , what EC50 was observed with P. falciparum MMV019721-resistant lines (3D7-A10 or Dd2-B2 derived)?
Response: 7100

###

# Tested on: P. falciparum 3D7 parasites
# Protocol Notes: Metabolomic profiling of compound-treated parasites (LC/MS)
# Assay type: cell-based
Assay Readout: Metabolite data: glutamine
One number for each entry.

In the examples that follow, each entry is paired with its recorded Metabolite data: glutamine.
- Compound: "Cc1cc(Nc2ccc3ccccc3c2)n2ncnc2n1"
  Target Or System: "P. falciparum 3D7 parasites"
  Measured Value: 0
- Compound: "O=C(NNC(=O)c1csnn1)c1ccc(Cl)cc1"
  Target Or System: "P. falciparum 3D7 parasites"
  Measured Value: 0.01906

Please give Metabolite data: glutamine for each item listed below.
1. C[C@H]1Cc2c([nH]c3cc(Cl)c(F)cc23)[C@@]2(N1)C(=O)Nc1ccc(Cl)cc12
2. CCN(CC)S(=O)(=O)c1ccc(Cl)c(C(=O)Nc2ccc3nc(C)sc3c2)c1

Response:
1. 0
2. 0.06047

Prompt: So what's the measured Metabolite data: glutamine for this one? O=C1C(O)=C([C@H]2CC[C@H](c3ccc(Cl)cc3)CC2)C(=O)c2ccccc21 [Atovaquone, reference compound]
Response: 0

###

# Test system: P. falciparum 3D7 parasites
# Protocol Notes: Metabolomic profiling of compound-treated parasites (LC/MS);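 for Metabolite data: Nicotinate: Log2 fold change in abundance versus untreated parasite controls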
# Assay type: cell-based
Entries whose Metabolite data: Nicotinate is below -0.005 take MET; entries at or above -0.005 take NOT MET.

- Molecule: "O=C(NNC(=O)c1csnn1)c1ccc(Cl)cc1"
  Class: "MET"

We now examine a further molecule.
Prompt: Just wondering, is Metabolite data: Nicotinate of Cc1cc(Nc2ccc3ccccc3c2)n2ncnc2n1 below -0.005?
Response: MET

###

# Target Or System: UniProt:C6KTB4
# Protocol Notes: PfAcAS mode of inhibition studies (EnzChek)
# Type: biochemical, P. falciparum
# Condition: variable ATP, saturating acetate and CoA; linear uncompetitive; read-out: Ki versus ATP
Please provide measured pKi for the entries that follow.
One number for each entry, as −log10 of the molar value.

- Compound Structure: "CCN(CC)S(=O)(=O)c1ccc(Cl)c(C(=O)Nc2ccc3nc(C)sc3c2)c1"
  pKi: 6.70

Prompt: Given the entry O=C(NNC(=O)c1csnn1)c1ccc(Cl)cc1 , what pKi was observed with UniProt:C6KTB4?
Response: 6.17

###

Please provide measured Metabolite data: Dihydroorotate for the entries that follow.
# System: P. falciparum 3D7 parasites
# Protocol Notes: Metabolomic profiling of compound-treated parasites (LC/MS)
# Assay type: cell-based
One number for each entry.

- Molecule: "O=C1C(O)=C([C@H]2CC[C@H](c3ccc(Cl)cc3)CC2)C(=O)c2ccccc21 [Atovaquone, reference compound]"
  Target Or System: "P. falciparum 3D7 parasites"
  Measured Value: 4.84

Please give Metabolite data: Dihydroorotate for each item listed below.
1. Cc1cc(Nc2ccc3ccccc3c2)n2ncnc2n1
2. C[C@H]1Cc2c([nH]c3cc(Cl)c(F)cc23)[C@@]2(N1)C(=O)Nc1ccc(Cl)cc12
3. O=C(NNC(=O)c1csnn1)c1ccc(Cl)cc1
4. COc1cc2[nH]c(C)c(-c3ccc(Oc4ccc(OC(F)(F)F)cc4)cc3)c(=O)c2cc1Cl
5. CC1(C)N=C(N)N=C(N)N1OCCCOc1cc(Cl)c(Cl)cc1Cl
6. CCN(CC)S(=O)(=O)c1ccc(Cl)c(C(=O)Nc2ccc3nc(C)sc3c2)c1

Response:
1: 2.672; 2: -2.01; 3: -1.467; 4: 5.061; 5: 0.21; 6: -0.5549

Please give Metabolite data: Dihydroorotate for each item listed below.
1. CCc1nc(N)nc(N)c1-c1ccc(Cl)cc1
2. N#Cc1cc(NC(=O)[C@H]2c3ccccc3C(=O)N(CC(F)(F)F)[C@@H]2c2cccnc2)ccc1F

Response:
[1.359, -2.603]

###

# Tested on: P. falciparum 3D7 parasites
# Protocol Notes: Metabolomic profiling of compound-treated parasites (LC/MS)
# Format: cell-based
Please provide measured Metabolite data: a-ketoglutarate for the entries that follow.
Give bare numbers.

In the examples that follow, each entry is paired with its recorded Metabolite data: a-ketoglutarate.
- Compound: "Cc1cc(Nc2ccc3ccccc3c2)n2ncnc2n1"
  Measured Value: -0.7348
- Compound: "CC1(C)N=C(N)N=C(N)N1OCCCOc1cc(Cl)c(Cl)cc1Cl"
  Measured Value: 0.08
- Compound: "O=C1C(O)=C([C@H]2CC[C@H](c3ccc(Cl)cc3)CC2)C(=O)c2ccccc21 [Atovaquone, reference compound]"
  Measured Value: -0.04
- Compound: "O=C(NNC(=O)c1csnn1)c1ccc(Cl)cc1"
  Measured Value: -0.2708

For the next question, use this compound.
Prompt: Given the entry CCN(CC)S(=O)(=O)c1ccc(Cl)c(C(=O)Nc2ccc3nc(C)sc3c2)c1 , what Metabolite data: a-ketoglutarate was observed with P. falciparum 3D7 parasites?
Response: 0.1182

###

Please provide measured IC50 for the entries that follow.
# Target Or System: PfAcAS WT (Plasmodium falciparum)
# Sequence (C6KTB4 entry or part of it): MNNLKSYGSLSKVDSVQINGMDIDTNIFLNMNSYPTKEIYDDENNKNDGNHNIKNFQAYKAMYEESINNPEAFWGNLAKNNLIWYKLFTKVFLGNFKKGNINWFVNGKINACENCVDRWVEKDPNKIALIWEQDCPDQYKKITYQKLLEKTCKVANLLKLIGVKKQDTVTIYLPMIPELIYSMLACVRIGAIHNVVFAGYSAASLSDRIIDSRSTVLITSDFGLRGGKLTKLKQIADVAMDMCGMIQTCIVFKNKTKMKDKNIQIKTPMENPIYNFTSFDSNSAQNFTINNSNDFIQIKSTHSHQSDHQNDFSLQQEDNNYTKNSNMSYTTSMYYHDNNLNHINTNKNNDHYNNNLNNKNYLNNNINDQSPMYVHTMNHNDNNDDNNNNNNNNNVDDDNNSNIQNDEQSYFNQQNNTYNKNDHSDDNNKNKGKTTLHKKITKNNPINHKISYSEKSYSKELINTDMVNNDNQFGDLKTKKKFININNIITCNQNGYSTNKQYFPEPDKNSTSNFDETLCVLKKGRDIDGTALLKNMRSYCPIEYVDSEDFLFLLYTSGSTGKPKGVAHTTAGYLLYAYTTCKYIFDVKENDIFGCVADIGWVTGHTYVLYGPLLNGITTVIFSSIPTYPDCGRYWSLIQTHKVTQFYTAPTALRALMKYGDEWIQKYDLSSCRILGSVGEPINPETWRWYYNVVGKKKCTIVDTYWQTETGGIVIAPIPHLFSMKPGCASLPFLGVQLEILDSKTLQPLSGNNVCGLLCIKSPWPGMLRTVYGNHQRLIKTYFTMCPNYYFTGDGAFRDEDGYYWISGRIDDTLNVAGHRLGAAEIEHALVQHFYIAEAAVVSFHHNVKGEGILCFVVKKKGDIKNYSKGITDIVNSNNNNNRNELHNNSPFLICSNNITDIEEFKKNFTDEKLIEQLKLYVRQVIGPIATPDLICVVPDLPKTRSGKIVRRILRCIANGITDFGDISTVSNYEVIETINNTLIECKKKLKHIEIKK
# Protocol Notes: EnzChek assay, recombinant PfAcAS WT (steady-state kinetics and IC50)

- Compound: "CCN(CC)S(=O)(=O)c1ccc(Cl)c(C(=O)Nc2ccc3nc(C)sc3c2)c1 [MMV019721]"
  Target Or System: "PfAcAS WT (Plasmodium falciparum)"
  IC50: "73 nM"

For the next question, use this compound.
Prompt: Given the entry O=C(NNC(=O)c1csnn1)c1ccc(Cl)cc1 [MMV084978] , what IC50 was observed with PfAcAS WT (Plasmodium falciparum)?
Response: 370 nM

###

# Test system: P. falciparum MMV019721-resistant lines (3D7-A10 or Dd2-B2 derived)
# Protocol Notes: Dose-response assay of MMV019721-selected resistant lines (bulk cultures and clones)
# Type: cell-based
# Condition: Plasmodium falciparum, read-out: MMV019721 mean EC50 (nM) ± SD (n), selection 4, 3D7-A10, Bulk, sequencing not determined
Assay Readout: EC50 (nM)
Give bare numbers, in nM.

Prompt: So what's the measured EC50 for this one? CCN(CC)S(=O)(=O)c1ccc(Cl)c(C(=O)Nc2ccc3nc(C)sc3c2)c1 [MMV019721]
Response: 460

###

# Tested on: P. falciparum MMV019721-resistant lines (3D7-A10 or Dd2-B2 derived)
# Protocol Notes: Dose-response assay of MMV019721-selected resistant lines (bulk cultures and clones)
# Assay type: cell-based
# Condition: Plasmodium falciparum, read-out: MMV019721 mean EC50 (nM) ± SD (n), selection 11, 3D7-A10, clone 1E9, sequencing not determined
Assay Readout: EC50 (nM)
Numbers only, in nM.

Prompt: So what's the measured EC50 for this one? CCN(CC)S(=O)(=O)c1ccc(Cl)c(C(=O)Nc2ccc3nc(C)sc3c2)c1
Response: 3000

###

# Target Or System: PfAcAS A597V (Plasmodium falciparum, UniProt C6KTB4, A597V)
# Protocol Notes: EnzChek assay, recombinant PfAcAS A597V
Assay Readout: pIC50
Numbers only, as −log10 of the molar value.

Prompt: So what's the measured pIC50 for this one? CCN(CC)S(=O)(=O)c1ccc(Cl)c(C(=O)Nc2ccc3nc(C)sc3c2)c1
Response: 5.16
